Test system: NCI-H522 lung
measurement.protocol: NCI tumour cell line growth inhibition, 48 h
measurement.type: TGI

Exam item: Give TGI for CCOC(=O)C(Cl)(NC(=O)c1ccc(F)cc1)C(F)(F)F (centres undefined)
Marked response: > 100 µM

Exam item: Give TGI for O=P(O)(O)CN1CCN(CP(=O)(O)O)CCN(CP(=O)(O)O)CCN(CP(=O)(O)O)CC1
Marked response: > 100 µM

Exam item: Give TGI for CC(C)(C)OC(=O)N(CCCN(CCn1c2c(c3ccccc3c1=O)C(=O)c1ccccc1-2)C(=O)OC(C)(C)C)CCn1c2c(c3ccccc3c1=O)C(=O)c1ccccc1-2
Marked response: > 50 µM

Exam item: Give TGI for Nc1c(-c2ccc(Br)cc2)[n+]([O-])c2ccccc2[n+]1[O-]
Marked response: > 100 µM

Exam item: Give TGI for Cc1c2c(nn1-c1ccc(S(=O)(=O)/N=C3\SCC(=O)N3C(=O)c3ccccc3)cc1)-c1ccccc1CC2
Marked response: > 100 µM

Exam item: Give TGI for COC12C=CC(CC1)C(C)(C)C2=O (centres undefined)
Marked response: > 100 µM

Exam item: Give TGI for O=C(CCc1ccc(O)cc1)NCCc1ccc(O)cc1
Marked response: > 100 µM

Exam item: Give TGI for CCOC(=O)c1c(SC(=O)/C=C/c2ccccc2)n(-c2ccccc2)c(=S)n(-c2ccccc2)c1=O
Marked response: > 100 µM

Exam item: Give TGI for C[C@]12CC[C@@H]3c4ccc(O)cc4CC[C@H]3[C@@H]1CC[C@@H]2NS(=O)(=O)c1ccc(C(F)(F)F)cc1
Marked response: 3.85 µM

Exam item: Give TGI for O=C1CCC(c2ccccc2)C(O)(C(=O)O)C1 (centres undefined)
Marked response: > 100 µM

Exam item: Give TGI for CCCCCCCCCCC(O)C1CCC(C2CCC(C(O)CCCCC(O)CCCCCC(O)CC3=CC(C)OC3=O)O2)O1 (centres undefined)
Marked response: > 25 µM

Exam item: Give TGI for CC(=O)O[C@@H]1C=C(C)[C@H](CBr)O[C@@]2(C)CC[C@H](Br)C(C)(C)[C@H]12
Marked response: 90.2 µM

Exam item: Give TGI for COC(=O)C1(c2ccc(N(C)C)cc2OC)CCCN(C(=O)Oc2ccccc2[N+](=O)[O-])CCc2c1[nH]c1ccccc21 (centres undefined)
Marked response: > 100 µM

Exam item: Give TGI for CC(=O)c1cccc2c1CC1(C2)Cc2ccc3c(c2C1=O)CCC3 (centres undefined)
Marked response: > 100 µM
